Target or system Peptostreptococcus prevotii ATCC 9321: recorded MIC listed per item.
Provide the reading as a plain figure in µg/mL.

O=C(O)c1cn(C2CC2)c2cc(N3CCNCC3)c(F)cc2c1=O 1
CO[C@H]1/C=C/O[C@@]2(C)Oc3c(C)c(O)c4c(O)c(c(/C=N/N5CCC(N(C)C6([C@@H]7CCN(c8c(F)cn9c(=O)c(C(=O)O)cc(C%10CC%10)c9c8C)C7)CC6)CC5)c(O)c4c3C2=O)NC(=O)/C(C)=C\C=C\[C@H](C)[C@H](O)[C@@H](C)[C@@H](O)[C@@H](C)[C@H](OC(C)=O)[C@@H]1C 0.03
CO[C@H]1/C=C/O[C@@]2(C)Oc3c(C)c(O)c4c(O)c(c5c(nc6cc(C)ccn65)c4c3C2=O)NC(=O)/C(C)=C\C=C\[C@H](C)[C@H](O)[C@@H](C)[C@@H](O)[C@@H](C)[C@H](OC(C)=O)[C@@H]1C 0.03

// molecule "Cc1ncc([N+](=O)[O-])n1CCO" , assay Peptostreptococcus prevotii ATCC 9321, MIC value: 256
